Listing: pIC50 of selected compounds
# Target or test system: purified human, His-tagged PRC2 complex (Homo sapiens (Human), UniProt O75530)
# Sequence (O75530 whole entry): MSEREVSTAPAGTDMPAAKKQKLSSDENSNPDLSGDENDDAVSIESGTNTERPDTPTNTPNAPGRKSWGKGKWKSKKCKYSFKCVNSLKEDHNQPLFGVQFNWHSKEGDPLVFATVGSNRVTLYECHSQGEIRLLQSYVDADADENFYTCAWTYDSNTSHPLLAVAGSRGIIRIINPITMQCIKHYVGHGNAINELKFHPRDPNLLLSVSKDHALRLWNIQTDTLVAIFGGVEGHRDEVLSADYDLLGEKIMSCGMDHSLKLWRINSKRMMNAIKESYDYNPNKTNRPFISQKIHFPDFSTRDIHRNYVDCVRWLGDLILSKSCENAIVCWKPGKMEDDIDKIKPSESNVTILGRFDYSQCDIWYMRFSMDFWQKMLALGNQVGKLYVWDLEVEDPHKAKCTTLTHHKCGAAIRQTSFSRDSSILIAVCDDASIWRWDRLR
# Sequence (Q15910 whole entry partner): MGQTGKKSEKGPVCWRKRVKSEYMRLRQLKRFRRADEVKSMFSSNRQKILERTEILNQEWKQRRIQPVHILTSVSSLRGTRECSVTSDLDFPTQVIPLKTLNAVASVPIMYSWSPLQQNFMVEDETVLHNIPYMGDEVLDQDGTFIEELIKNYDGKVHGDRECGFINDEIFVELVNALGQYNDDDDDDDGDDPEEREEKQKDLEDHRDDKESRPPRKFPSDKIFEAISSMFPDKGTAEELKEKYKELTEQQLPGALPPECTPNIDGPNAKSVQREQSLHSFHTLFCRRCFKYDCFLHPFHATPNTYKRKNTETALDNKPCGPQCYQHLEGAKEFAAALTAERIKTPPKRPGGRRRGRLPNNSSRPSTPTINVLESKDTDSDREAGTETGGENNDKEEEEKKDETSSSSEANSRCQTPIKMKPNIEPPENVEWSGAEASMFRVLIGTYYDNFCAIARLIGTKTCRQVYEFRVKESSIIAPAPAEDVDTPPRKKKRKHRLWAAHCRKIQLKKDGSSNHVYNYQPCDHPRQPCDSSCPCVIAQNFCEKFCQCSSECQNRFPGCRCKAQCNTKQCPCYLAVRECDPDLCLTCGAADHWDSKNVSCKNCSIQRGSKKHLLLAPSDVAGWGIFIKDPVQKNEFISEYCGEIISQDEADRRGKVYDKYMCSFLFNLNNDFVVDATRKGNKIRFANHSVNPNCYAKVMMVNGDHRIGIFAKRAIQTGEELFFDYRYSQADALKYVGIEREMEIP
# Sequence (Q15022 whole entry partner): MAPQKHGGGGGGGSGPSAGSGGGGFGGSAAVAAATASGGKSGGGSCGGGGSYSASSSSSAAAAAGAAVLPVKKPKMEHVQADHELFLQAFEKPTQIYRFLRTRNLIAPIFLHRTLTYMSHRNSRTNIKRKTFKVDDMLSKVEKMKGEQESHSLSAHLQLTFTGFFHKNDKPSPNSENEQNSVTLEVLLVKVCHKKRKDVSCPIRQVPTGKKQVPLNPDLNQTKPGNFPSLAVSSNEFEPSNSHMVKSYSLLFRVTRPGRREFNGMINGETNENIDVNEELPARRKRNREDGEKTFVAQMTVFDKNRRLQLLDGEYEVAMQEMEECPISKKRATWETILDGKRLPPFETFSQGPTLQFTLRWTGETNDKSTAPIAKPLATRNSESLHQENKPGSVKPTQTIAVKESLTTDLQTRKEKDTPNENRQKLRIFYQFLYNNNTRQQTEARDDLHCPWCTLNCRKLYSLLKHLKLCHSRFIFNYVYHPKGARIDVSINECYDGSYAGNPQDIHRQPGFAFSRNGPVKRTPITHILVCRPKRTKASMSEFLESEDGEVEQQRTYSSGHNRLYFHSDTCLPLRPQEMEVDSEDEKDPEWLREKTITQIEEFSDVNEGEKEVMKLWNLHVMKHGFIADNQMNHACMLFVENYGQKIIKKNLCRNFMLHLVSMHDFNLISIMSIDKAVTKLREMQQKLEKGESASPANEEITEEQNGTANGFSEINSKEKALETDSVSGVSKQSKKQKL
# Sequence (Q6ZN18 whole entry partner): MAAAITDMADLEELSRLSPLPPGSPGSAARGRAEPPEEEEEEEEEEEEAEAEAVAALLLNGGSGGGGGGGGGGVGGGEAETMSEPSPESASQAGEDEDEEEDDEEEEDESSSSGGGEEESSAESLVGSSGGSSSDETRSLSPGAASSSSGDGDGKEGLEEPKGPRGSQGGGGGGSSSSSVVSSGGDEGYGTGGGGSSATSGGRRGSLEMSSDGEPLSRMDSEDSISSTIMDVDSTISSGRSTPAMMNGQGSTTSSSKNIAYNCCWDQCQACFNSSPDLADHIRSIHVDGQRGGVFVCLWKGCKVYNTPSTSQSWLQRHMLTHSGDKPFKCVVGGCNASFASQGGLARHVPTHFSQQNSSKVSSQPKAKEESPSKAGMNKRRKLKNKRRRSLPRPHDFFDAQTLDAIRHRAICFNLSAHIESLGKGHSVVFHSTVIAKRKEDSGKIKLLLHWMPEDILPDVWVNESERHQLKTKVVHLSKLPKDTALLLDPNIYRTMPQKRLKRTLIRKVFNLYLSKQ
# Sequence (Q09028 whole entry partner): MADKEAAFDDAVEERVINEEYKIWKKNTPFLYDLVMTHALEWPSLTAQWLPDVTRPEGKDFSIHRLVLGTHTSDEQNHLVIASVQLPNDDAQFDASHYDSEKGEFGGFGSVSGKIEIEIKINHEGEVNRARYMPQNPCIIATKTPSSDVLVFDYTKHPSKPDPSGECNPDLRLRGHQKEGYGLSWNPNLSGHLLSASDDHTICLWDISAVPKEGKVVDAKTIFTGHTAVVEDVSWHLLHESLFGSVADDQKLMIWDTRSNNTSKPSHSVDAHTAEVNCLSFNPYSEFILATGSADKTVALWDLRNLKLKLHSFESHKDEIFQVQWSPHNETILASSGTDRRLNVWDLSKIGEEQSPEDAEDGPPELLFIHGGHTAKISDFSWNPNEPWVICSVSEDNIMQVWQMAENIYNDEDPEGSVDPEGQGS
# Protocol details: Hot Spot HMT assay, inhibition of PRC2 enzymatic activity
# Study conditions: 10 nM PRC2 complex, 1 μM 3H-SAM, core histone H3, 10-point dose-response
pIC50: −log10 of the molar value.
Parameter: pIC50

Cc1nn(C(C)C)cc1-c1cnc(NCc2c(F)ccc3c2CCO3)n2cc(C#N)nc12 | 6.30 to 7.00
CN(C)Cc1c(F)cc(-c2cnc(NCc3c(F)ccc4c3CCO4)n3cc(C#N)nc23)cc1F | 6.30 to 7.00
N#Cc1cn2c(NCc3c(F)ccc4c3CCO4)ncc(-c3ccc(S(=O)(=O)C(F)(F)F)cc3)c2n1 | 6.30 to 7.00
Cn1nccc1-c1cnc(NCc2c(F)ccc3c2CCO3)n2cc(C#N)nc12 | > 7.00
N#Cc1cn2c(NCc3c(F)ccc4c3CCO4)ncc(-c3ccc(CN4CCCC4)cc3)c2n1 | > 7.00
Cc1nn(C(C)C)cc1-c1cnc(NCc2c(F)ccc3c2CCO3)n2cc(C(=O)O)nc12 | > 7.00
N#Cc1cn2c(NCc3c(F)ccc4c3CCO4)ncc(-c3ccccc3C#N)c2n1 | > 7.00
CN1CCN(C(=O)c2ccc(-c3cnc(NCc4c(F)ccc5c4CCO5)n4cc(C#N)nc34)cc2)CC1 | > 7.00
CN(C)Cc1ccc(-c2cnc(NCc3c(F)ccc4c3CCO4)n3cc(C#N)nc23)cc1C#N | > 7.00
CN1CCc2cc(-c3cnc(NCc4c(F)ccc5c4CCO5)n4cc(C#N)nc34)ccc2C1=O | > 7.00
CN(C)Cc1ccc(-c2cnc(NCc3c(F)ccc4c3CCO4)n3cc(C#N)nc23)c(F)c1 | > 7.00
Cc1nn(C(C)C)c(C)c1-c1cnc(NCc2c(F)ccc3c2CCO3)n2cc(C#N)nc12 | 6.30 to 7.00
N#Cc1cn2c(NCc3c(F)ccc4c3CCO4)ncc(C3CC3)c2n1 | 6.30 to 7.00
N#Cc1cn2c(NCc3c(F)ccc4c3CCO4)ncc(-c3ccc(CN4CCC(F)C4)cc3)c2n1 (stereo not shown) | > 7.00
Cc1ncccc1-c1cnc(NCc2c(F)ccc3occc23)n2cc(C(N)=O)nc12 | > 7.00
CN(C)Cc1cc(F)c(-c2cnc(NCc3c(F)ccc4c3CCO4)n3cc(C#N)nc23)cc1F | > 7.00

====

# Target or test system: purified human, His-tagged PRC2 complex (Homo sapiens (Human))
# Protocol details: Hot Spot HMT assay, inhibition of PRC2 enzymatic activity
# Study conditions: 10 nM PRC2 complex, 1 μM 3H-SAM, core histone H3, 10-point dose-response
Parameter: IC50

N#Cc1cn2c(NCc3c(F)ccc4c3CCO4)ncc(-c3ccc(C4CCCO4)cc3)c2n1 (stereo not shown) | < 100 nM
N#Cc1ccc(-c2cnc(NCc3c(F)ccc4c3CCO4)n3cc(C#N)nc23)cn1 | < 100 nM
Cc1cc(CN(C)C)ccc1-c1cnc(NCc2c(F)ccc3c2CCO3)n2cc(C#N)nc12 | 100 to 500 nM
CN1CCC1c1ccc(-c2cnc(NCc3c(F)ccc4c3CCO4)n3cc(C#N)nc23)cc1 (stereo not shown) | < 100 nM
N#Cc1cc(-c2cnc(NCc3c(F)ccc4c3CCO4)n3cc(C#N)nc23)ccn1 | 100 to 500 nM
Cc1cc(S(C)(=O)=O)ccc1-c1cnc(NCc2c(F)ccc3c2CCO3)n2cc(C#N)nc12 | < 100 nM
CC(c1ccc(-c2cnc(NCc3c(F)ccc4c3CCO4)n3cc(C#N)nc23)cc1)N1CCCC1 (stereo not shown) | < 100 nM
N#Cc1cn2c(NCc3c(F)ccc4c3CCO4)ncc(-c3ccc(C4CCCN4)cc3)c2n1 (stereo not shown) | 100 to 500 nM
N#Cc1cn2c(NCc3c(F)ccc4c3CCO4)ncc(-c3cnn(C4CCOC4)c3)c2n1 (stereo not shown) | 100 to 500 nM
N#Cc1cn2c(NCc3c(F)ccc4c3CCO4)ncc(-c3ccc(C(F)(F)F)nc3)c2n1 | 100 to 500 nM
Cc1n[nH]c(C)c1-c1cnc(NCc2c(F)ccc3c2CCO3)n2cc(C#N)nc12 | > 500 nM
Cc1cc(C(=O)N(C)C)ccc1-c1cnc(NCc2c(F)ccc3c2CCO3)n2cc(C#N)nc12 | < 100 nM
N#Cc1cn2c(NCc3c(F)ccc4c3CCO4)ncc(-c3ccc(N4CCCCC4)nc3)c2n1 | < 100 nM
N#Cc1cn2c(NCc3c(F)ccc4c3CCO4)ncc(-c3ccc(N)nc3)c2n1 | < 100 nM
Cc1cc(-c2cnc(NCc3c(F)ccc4c3CCO4)n3cc(C(N)=O)nc23)n(C)n1 | < 100 nM
CN(C)S(=O)(=O)c1ccc(-c2cnc(NCc3c(F)ccc4c3CCO4)n3cc(C#N)nc23)cc1 | < 100 nM
